Origin of values: PubChem BioAssay

experiment: compounds binding Alexa647 anti-His antibody – biochemical, small-molecule microarray, 635 nm fluorescence, artefact control for SMM control protein annotation, primary screen (AID 1128); conditions: higher = more signal;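 further: score merges feature fluorescence with signal-to-noise for each printed compound spot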
Known composite z-score of a selection of compounds

Answered cases to consult:
COMPOUND: Cc1ccc(N2C(=O)c3ccccc3[C@](C)(C(=O)NCCCN(C)C)[C@@H]2c2ccc(CO)cc2)nc1
composite z-score: -0.479

COMPOUND: NCCCCCCNC(=O)[C@@H]1C[C@@H]2C(=O)N3CCC[C@H]3C(=O)N2[C@@H]1c1cccc(OCCO)c1
composite z-score: 2.14

COMPOUND: O=C(N1CCOCC1)[C@@]1(Cc2ccccc2)COC(c2ccc(OCCCO)cc2)=N1
composite z-score: 2.69

COMPOUND: O=C1O[C@@H](c2ccccc2)[C@@H](c2ccccc2)N2[C@@H](c3ccc(OCCO)cc3)[C@]3(C(=O)Nc4ccc(C#CCCO)cc43)[C@@H](C(=O)O)[C@H]12
composite z-score: 2.76

COMPOUND: C[C@@H]1ON(c2ccc(I)cc2)[C@H](c2cccc(NC(=O)OCC3c4ccccc4-c4ccccc43)c2)[C@H]1C(=O)N1C(=O)OC[C@H]1Cc1ccccc1
composite z-score: 0.296

COMPOUND: COCCn1c(C(=O)N(C)C)cc2c1C[C@H]1CN(C(=O)c3ccccc3)[C@@](Cc3ccc(OC)cc3)(C(=O)OC)[C@@H]21
composite z-score: 1.59

# ---- query compound ----
## Task For CCC(CC)C(O)C1C=CC2C(=O)N(c3ccccc3)C(=O)C2N1Nc1ccccc1F (configuration not stated) , what is its reported composite z-score?
## Result 1.62
